Assay: NCI Yeast Anticancer Drug Screen. Data for the sgs1 mgt1 strain (AID 161);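 further: 0% = growth of cultures given vehicle only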
Conditions: S. cerevisiae sgs1 mgt1 strain, hits give high values; at 50.0 µM unless noted
About 79,000 compounds went through this panel and 15% of them were active in at least one assay; those are over-represented in the sample as a whole.
Catalogue of growth inhibition values
property: growth inhibition (%)

• COc1cc(/C=C/C(=O)O)ccc1O = 16.1
• Cc1nn(C(=O)c2ccc(Cl)cc2)c2c1C(c1ccc([N+](=O)[O-])cc1)SC(N)=N2 (stereo unspecified) = 16.4
• O=C(Nc1ccc2c(c1)Cc1c(F)cccc1-2)C(F)(F)F = -3.95
• Cc1cc(CSC(=N)N)c(CSC(=N)N)cc1C = -2.45
• COc1cccc(C)c1NC(=O)NCCCl = 13.2
• C=CCCCC12CCCc3cccc(c31)NC2=O (stereo unspecified) = 24.8
